Experimental system: recombinant human IL-18 (human, UniProt Q14116 37-193)
Test: cell-based or functional assay
Below is a list of entries, each paired with its recorded IC50, IFNγ release KG-1 cell assay, human IL-18 value.
Kindly provide the numeric value in nM only, without the unit symbol.

>  <Binder>
Antibody 2 IgG2 (antibody, V domains shown) VH: QVQLQQSGPRLVKPSQTLSLTCTVSGGSISSGGYYWSWIRQPAGKGLEWIGSIYYSGSTYYNPSLKSRVTISGDTPKNQFSLKLSSVTAADTAVYYCARTPAYDGDARADFFDVWGRGTLVTVSS VL: DIVMTQSPSTLSASVGDRVTITCRASQGISSWLAWYQQKPGRAPKVLIYKASTLESGVPSRFSGSGSGTDFTLTISSLQPEDFATYYCQDISFPPWTFGQGTKLEIK

>  <Units label>
nM

>  <Reported measurement>
5

$$$$
>  <Binder>
Antibody 10 IgG2 (antibody, V domains shown) VH: QVQLQQSGPRLVEPSQTLSLTCTVSGGSISSDGYYWSWIRQPAGKGLEWIGSIYYSGSTYYNPSLRSRVTISGDTPKNQFSLKLSSVTAADTAVYYCARTPAYFGQDRTDFFDVWGRGTLVTVSS VL: DIVMTQSPSTLSASVGDRVTITCRASQGISSWLAWYQQKPGGAPKVLIYKASTLESGVPSRFSGSGSGTDFTLTISSLQPEDFATYYCQQSHHPPWTFSQGTKLEIK

>  <Units label>
nM

>  <Reported measurement>
0.22

$$$$
>  <Binder>
Antibody 9 IgG2 (antibody, V domains shown) VH: QVQLQQSGPRLVEPSQTLSLTCTVSGGSISSDGYYWSWIRQPAGKGLEWIGSIYYSGSTYYNPSLKSRVTISGDTPKNQFSLKLSSVTAADTAVYYCARTPAYFGQDRTDFFDVWGRGTLVTVSS VL: DIVMTQSPSTLSASVGDRVTITCRASQGISSWLAWYQQKPGRAPKVLIYKASTLESGVPSRFSGSGSGTDFTLTISSLQPEDFATYYCQQSHHPPWTFGQGTKLEIK

>  <Units label>
nM

>  <Reported measurement>
0.166

$$$$

Kindly review the next binder as well.
Prompt: IC50, IFNγ release KG-1 cell assay, human IL-18 for Antibody 11 IgG2 (antibody, V domains shown) VH: QVQLQQSGPRLVEPSQTLSLTCTVSGGSISADGYYWSWIRQPAGKGLEWIGSLYYSGSTYYNPSLRGRVTISGDTPKNQFSLKLSSVTAADTAVYYCARTPAYFGQDRTDFFDVWGRGTLVTVSS VL: DIVMTQSPSTLSASVGDRVTITCRASQGISSWLAWYQQKPGGAPKVLIYKASTLESGVPSRFSGSGSGTDFTLTISSLQPEDFATYYCQQSHHPPWTFSQGTKLEIK ?
Response: 0.26

Reference for the values: patent US20140004128A1
